system: UACC-257; assay: NCI tumour cell line growth inhibition, 48 h
The source made the active and inactive calls. Cut-off read from the data, not from the text of the source: active = GI50 up to about 1.1 µM and inactive = higher.
Entry note: the call must match one of active, inactive

Please review the following examples before continuing.
{"columns": ["compound", "qualitative.label"],
 "data": [
  ["Cc1cc2ccccc2oc(=O)/c1=N\\Nc1ccccc1", "inactive"],
  ["c1cc2c(c(-c3c4ccccc4nc4ccccc34)c1)CC1(CC2)OCCO1", "inactive"],
  ["CC(=O)NNc1nc(C)c(C(=O)NNC(=O)C(=O)Nc2c(C)cccc2C)s1", "inactive"],
  ["Cc1ccc(NC(Nc2ccc(C)cc2C)=C(C(Cl)=C(Cl)Cl)[N+](=O)[O-])c(C)c1", "inactive"],
  ["O=C(/C=C/c1ccc(O)c(O)c1)Oc1ccccc1", "inactive"]
]}

Tell me the recorded outcome of this test for Cc1cc(O)c(-c2cc(O)c(C)cc2O)cc1O .
inactive

Recorded test outcome, item Cc1ccc(/C=N/NS(=O)(=O)c2ccccc2)cc1C
inactive

Fill in: this test's call for COc1ccc(COCCOCc2nc(C#N)c(N)o2)cc1 is ___
inactive

Can you look up the reported call for CCCCOC(=O)C1CN2C(=NC1(C(F)(F)F)C(F)(F)F)Sc1ccccc12 (stereo unspecified) for me?
inactive

Lab log entry: COc1cc(OC)c2c(O)c3c(cc2c1)CC(C)(C)CC3=O — outcome as called in the assay?
inactive

Assay result, entry Cn1c2ccccc2c(=S)c2cc(NC(=O)CCCCC(=O)Nc3ccc4c(c3)c(=S)c3ccccc3n4C)ccc21 — outcome?
inactive

For CCOc1ccc(-n2c(=O)c3nn4c(=O)n(-c5ccc(OCC)cc5)c(=O)c4nn3c2=O)cc1 , what call appears in the results of this test?
inactive

Outcome? c1ccc2c(c1)OC(N1CCCC1)c1cnc(N3CCCC3)nc1-2 (stereo unspecified)
inactive

Query: recorded result category for COc1ccccc1/C=C\C(=O)C1COCN1 (stereo unspecified) in this test
inactive

----------
system: SK-MEL-28; assay: NCI tumour cell line growth inhibition, 48 h
Active and inactive are the calls of the source. Rule as the data show it: active = GI50 up to about 1.1 µM and inactive = higher.
observable: GI50

Some compounds with known GI50 results, for comparison:
{"columns": ["compound", "GI50"],
 "data": [
  ["C[C@H]1C(=O)CC[C@]2(C)CCC(C(C)(C)O)CC12O (stereo partly specified)", "> 100 µM (inactive)"],
  ["Nc1nc(Sc2ccc([N+](=O)[O-])cn2)c2nc[nH]c2n1", "33.8 µM (inactive)"],
  ["O=C1CC[C@@H](S(=O)(=O)c2ccccc2)[C@@H](/C=C/c2ccccc2)O1", "> 100 µM (inactive)"],
  ["O=C(O)c1cc(NCc2cc(O)ccc2O)ccc1O [LAVENDUSTIN C]", "> 100 µM (inactive)"],
  ["O=C(Nc1ccccc1-c1nn(C(=S)Nc2ccccc2)c(=S)n(C(=S)Nc2ccccc2)c1=O)C(F)(F)F", "27.6 µM (inactive)"]
]}

For this compound ( O=C1NC2C3CC(OCc4ccccc4)(OCc4ccccc4)C2OC3O1 (stereo unspecified) ), measured GI50 is > 50 µM (inactive)

According to the records, this compound COc1ccc(C(=O)Nc2ccccc2)cc1[N+](=O)[O-] displays GI50 of > 100 µM (inactive)

Record CC(=O)Oc1ccc2cc(Oc3ccccc3)c(=O)oc2c1 . Reported GI50: > 100 µM (inactive)

What the record says about CCOc1ncn(-c2ccc(NC(=S)NC34CC5CC(CC(C5)C3)C4)cc2)n1 : GI50 is 61.8 µM (inactive)

Value of GI50 reported for the compound CC(C)NC(=O)OCc1c(CO)c2c(n1C)-c1ccccc1CC2 is 25.9 µM (inactive)

Data origin, for the record: ChEMBL document CHEMBL1201862
